Assay: self-splicing fitness, log relative to wild type (ln ratio); higher = more splicing; Tetrahymena group I intron in knt gene, E. coli kanamycin selection, DiMSum; sequences stand for … in CUCUCU…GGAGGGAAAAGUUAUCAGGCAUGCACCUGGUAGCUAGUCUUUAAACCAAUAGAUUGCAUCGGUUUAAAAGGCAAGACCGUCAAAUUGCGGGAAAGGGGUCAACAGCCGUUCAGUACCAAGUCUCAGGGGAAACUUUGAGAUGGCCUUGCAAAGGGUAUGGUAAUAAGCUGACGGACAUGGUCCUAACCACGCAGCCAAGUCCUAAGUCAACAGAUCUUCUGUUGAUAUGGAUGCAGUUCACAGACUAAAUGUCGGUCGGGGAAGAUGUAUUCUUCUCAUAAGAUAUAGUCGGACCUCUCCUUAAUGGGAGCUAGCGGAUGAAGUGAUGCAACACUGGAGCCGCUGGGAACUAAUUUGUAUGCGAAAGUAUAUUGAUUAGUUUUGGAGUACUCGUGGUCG;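 further: selection with 25 µg/mL kanamycin versus none on LB agar overnight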
Conditions: 30 °C
Value type: self-splicing fitness (ln)
Answers are plain numbers.

Illustrative cases are given below, each with its answer.
{"Sequence data": "UGGCAGCAAUAUUACGCUGU", "self-splicing fitness (ln)": -2.97}
{"Sequence data": "CCUAAGCAAUAUUACGAUCA", "self-splicing fitness (ln)": -3.57}
{"Sequence data": "UUCUAGCAAUAUUACGCUAU", "self-splicing fitness (ln)": -4.08}
{"Sequence data": "GUCCAGCAAUAUUACGCUAC", "self-splicing fitness (ln)": -4.03}
{"Sequence data": "GGUCAGCAAUAUUACGAAAG", "self-splicing fitness (ln)": -1.78}
{"Sequence data": "AAGGAGCAAUAUUACGAUUG", "self-splicing fitness (ln)": -3.8}
{"Sequence data": "UGCUAGCAAUAUUACGAUAA", "self-splicing fitness (ln)": -1.64}
{"Sequence data": "CUGCAGCAAUAUUACGCUAC", "self-splicing fitness (ln)": -4.2}
{"Sequence data": "GAUCAGCAAUAUUACGCGCG", "self-splicing fitness (ln)": -0.222}
{"Sequence data": "GAAUAGCAAUAUUACGUCGA", "self-splicing fitness (ln)": -0.367}

Batch of 7 sequences: report self-splicing fitness (ln) for each.
1. UGCUAGCAAUAUUACGUAGG
2. AGGAAGCAAUAUUACGUGCC
3. GUGUAGCAAUAUUACGCGGU
4. UGGAAGCAAUAUUACGUUUU
5. CGGCAGCAAUAUUACGCACC
6. GUUAAGCAAUAUUACGGUUU
7. ACCCAGCAAUAUUACGGUGC

-2.18
-1.72
-2.85
-3.63
-2.89
-0.85
-1.11

Source of measurements: the supplement of paper PMC7877785
